target of assay: human PHD2 (Homo sapiens (Human), UniProt Q9GZT9)
Sequence (Q9GZT9 whole entry): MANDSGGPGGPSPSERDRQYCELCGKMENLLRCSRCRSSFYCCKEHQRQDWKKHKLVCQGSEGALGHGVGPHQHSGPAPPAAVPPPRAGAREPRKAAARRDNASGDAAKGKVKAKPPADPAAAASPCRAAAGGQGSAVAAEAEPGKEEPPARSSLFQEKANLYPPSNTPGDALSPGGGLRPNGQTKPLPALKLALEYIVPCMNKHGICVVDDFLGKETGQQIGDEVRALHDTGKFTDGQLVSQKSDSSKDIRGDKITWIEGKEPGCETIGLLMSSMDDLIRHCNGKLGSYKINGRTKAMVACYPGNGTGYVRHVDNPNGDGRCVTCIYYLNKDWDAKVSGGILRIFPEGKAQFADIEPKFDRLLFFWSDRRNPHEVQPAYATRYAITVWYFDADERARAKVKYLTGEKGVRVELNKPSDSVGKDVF
assay protocol: Test 2: human PHD2 inhibitory activity, fluorescence polarization assay of HIF-1α peptide proline hydroxylation
Assay type: biochemical
experimental parameters: test compound's concentration 1 μM; Test 2, fluorescence polarization assay; read-out: Percent inhibition (% at 1 μM)
Method: (1) Expression and Preparation of Human PHD2 A registered sequence of human PHD2 (NM_022051) was introduced into pcDNA3.1/Hygro(+) vector (Invitrogen), and the sequence was verified. […] The activity of human PHD2 enzyme was measured with a substrate which is a 19-residue partial peptide based on the sequence of HIF-1α; specifically, the hydroxylation of a proline residue in the peptide was measured by FP (Fluorescence Polarization). […]
Assignment: determine reported inhibition at 1 µM for the given compounds.
One number for each entry, in %.

Previously resolved entries follow.
> print(dat)
                                   compound  value.measured
1  O=C(O)CNC(=O)C1=C(O)CCN(Cc2ccc(C(F)(F)F)c(C3CCC3)c2)C1=O              78
2  Cc1nc(CN2CCC(O)=C(C(=O)NCC(=O)O)C2=O)c[nH]1              40
3  CC(C)[C@@H]1CC(O)=C(C(=O)NCC(=O)O)C(=O)N1Cc1ccc(OCC2CC2)cc1              42
4  COc1ccc(CN2CCC(O)=C(C(=O)NCC(=O)O)C2=O)cc1              79
5  O=C(O)CNC(=O)C1=C(O)CCN(Cc2ccc(-c3ccc(O)nc3)cc2)C1=O              96

Batch request: inhibition at 1 µM per item, same order as input.
1. CC(C)(C)c1ccc(-c2ccc(CN3C(=O)C(C(=O)NCC(=O)O)=C(O)CC34COC4)cc2)cc1
2. O=C(O)CNC(=O)C1=C(O)CCN(C[C@H]2CC[C@H](Oc3ccc(Cl)cn3)CC2)C1=O
3. CC1(C)CC(O)=C(C(=O)NCC(=O)O)C(=O)N1Cc1nc(-c2ccccc2)cs1
4. O=C(O)CNC(=O)C1=C(O)CCN(C[C@H]2CC[C@H](OCC3CC3)CC2)C1=O
5. O=C(O)CNC(=O)C1=C(O)CC2(CC2)N(Cc2ccc(C3CC3)cc2)C1=O

Resp:
[97, 93, 68, 75, 89]

Batch request: inhibition at 1 µM per item, same order as input.
1. O=C(O)CNC(=O)C1=C(O)CC2(CCCCC2)N(Cc2ccc(C(F)(F)F)cn2)C1=O
2. O=C(O)CNC(=O)C1=C(O)CCN(Cc2ccc(Cl)c(OC(F)(F)F)c2)C1=O
3. Cc1ccc(COc2ccc(CN3CCC(O)=C(C(=O)NCC(=O)O)C3=O)cc2F)cc1
4. O=C(O)CNC(=O)C1=C(O)CCN(Cc2ccc(C3CCCCC3)cc2)C1=O

Resp:
52
85
93
89

###

target of assay: human PHD2 (Homo sapiens (Human))
assay protocol: Test 2: human PHD2 inhibitory activity, fluorescence polarization assay of HIF-1α peptide proline hydroxylation
Assay type: biochemical
experimental parameters: test compound's concentration 1 μM; Test 2, fluorescence polarization assay; read-out: Percent inhibition (% at 1 μM)
reported endpoint: inhibition at 1 µM
Returns: string containing the numeric result and its unit.

Previously resolved entries follow.
> print(dat)
                                   compound   reported.endpoint  value.measured
1  Cc1cc(CN2C(=O)C(C(=O)NCC(=O)O)=C(O)CC2(C)C)ccc1F [Ex. 1-179]  inhibition at 1 µM             49%
2  O=C(O)CNC(=O)C1=C(O)C[C@@H](Cc2ccccc2)N(Cc2ccc(OCC3CC3)cc2)C1=O [Ex. 6-21]  inhibition at 1 µM             85%
3   O=C(O)CNC(=O)C1=C(O)CCNC1=O [Ex. 1-308]  inhibition at 1 µM             41%
4  O=C(O)CNC(=O)C1=C(O)CCN(Cc2ccc(OCc3cccc(Cl)c3)cc2)C1=O [Ex. 1-306]  inhibition at 1 µM             99%
5  N#Cc1ccc(-c2ccc(CN3CCC(O)=C(C(=O)NCC(=O)O)C3=O)cc2)cc1 [Ex. 2-14]  inhibition at 1 µM             93%

Batch request: inhibition at 1 µM per item, same order as input.
1. CC1(C)CC(O)=C(C(=O)NCC(=O)O)C(=O)N1CC1CCN(C(=O)CC2CC2)CC1 [Ex. 6-18]
2. O=C(O)CNC(=O)C1=C(O)CCN(Cc2ccc(-c3ccc4ncccc4c3)cc2)C1=O [Ex. 2-27]
3. CC1(C)CC(O)=C(C(=O)NCC(=O)O)C(=O)N1Cc1ccc(OCCC2CC2)cc1 [Ex. 1-247]
4. CCc1ccc(O[C@H]2CC[C@H](CN3CCC(O)=C(C(=O)NCC(=O)O)C3=O)CC2)nc1 [Ex. 1-449]

Resp:
1: 24%; 2: 96%; 3: 82%; 4: 99%

Batch request: inhibition at 1 µM per item, same order as input.
1. CCC1(CC)CC(O)=C(C(=O)NCC(=O)O)C(=O)N1Cc1ccc(C(F)(F)F)cc1 [Ex. 1-183]
2. COc1cccc(-c2ccc(CN3CCC(O)=C(C(=O)NCC(=O)O)C3=O)cc2)c1 [Ex. 2-26]
3. O=C(O)CNC(=O)C1=C(O)CN(Cc2ccc(OCC3CC3)cc2)C1=O [Ex. 6-7]

Resp:
1. 50%
2. 95%
3. 86%

Req: // fetch inhibition at 1 µM given entry COc1ccc(-c2ccc(CN3CCC(O)=C(C(=O)NCC(=O)O)C3=O)cc2)nc1 [Ex. 1-426]
Resp: 88%

###

Target or system human PHD2 (Homo sapiens (Human), UniProt Q9GZT9); recorded quantity IC50.
Answers are plain numbers, in nM.

Previously resolved entries follow.
> print(dat)
                            chemical.smiles                           target.of.assay  reported.endpoint  value.measured
1  O=C(O)CNC(=O)C1=C(O)CCN(Cc2ccc(Oc3cccc(F)c3)nc2)C1=O  human PHD2 (Homo sapiens (Human), UniProt Q9GZT9)               IC50              66
2  O=C(O)CNC(=O)C1=C(O)CCN(Cc2ccc(Oc3ccc(C(F)(F)F)nc3)cc2)C1=O  human PHD2 (Homo sapiens (Human), UniProt Q9GZT9)               IC50              56
3  O=C(O)CNC(=O)C1=C(O)CCN(Cc2ccc(Oc3ccc(C4CC4)cn3)cc2)C1=O  human PHD2 (Homo sapiens (Human), UniProt Q9GZT9)               IC50              56

Query compound follows.
Req: // fetch IC50 given entry Cc1ccc(Oc2ccc(CN3CCC(O)=C(C(=O)NCC(=O)O)C3=O)cc2)nc1
Resp: 89

###

target of assay: human PHD2 (Homo sapiens (Human))
assay protocol: Test 1: human PHD2 inhibitory activity, [14C]-2-oxoglutarate to [14C]-succinic acid radiometric assay with HIF-1α peptide
Assay type: biochemical
experimental parameters: test compound's concentration 1 μM; Test 1, [14C]-2-oxoglutarate radiometric assay; read-out: Percent inhibition (% at 1 μM)
reported endpoint: inhibition at 1 µM

Previously resolved entries follow.
> print(dat)
                                   molecule   reported.endpoint  value.measured
1  O=C(O)CNC(=O)C1=C(O)CC2(CCC2)N(Cc2ccc(OCC3CC3)cc2)C1=O  inhibition at 1 µM             81%
2  Cc1ccc(Oc2ccc(CN3CCC(O)=C(C(=O)NCC(=O)O)C3=O)cc2)nc1  inhibition at 1 µM             86%

Batch request: inhibition at 1 µM per item, same order as input.
1. O=C(O)CNC(=O)C1=C(O)CCN(Cc2ccc(Oc3ccccc3)cc2)C1=O
2. Cc1ccc(Oc2ccc(CN3CC(C)(C)C(O)=C(C(=O)NCC(=O)O)C3=O)cn2)cc1
3. CCOc1ccc(CN2C(=O)C(C(=O)NCC(=O)O)=C(O)CC2(C)C)cc1
4. O=C(O)CNC(=O)C1=C(O)CCN(Cc2ccc(Cc3ccccc3)cc2)C1=O
5. CC1CN(Cc2ccc(Br)cc2)C(=O)C(C(=O)NCC(=O)O)=C1O (stereo not shown)
6. O=C(O)CNC(=O)C1=C(O)CCN(Cc2cccc(OC(F)(F)F)c2)C1=O
7. CC(C)(c1ccc(C(F)(F)F)cc1)N1CCC(O)=C(C(=O)NCC(=O)O)C1=O

Resp:
["94%", "93%", "61%", "90%", "76%", "67%", "65%"]

###

Target or system human PHD2 (Homo sapiens (Human), UniProt Q9GZT9); recorded quantity IC50.
Numbers only, in nM.

Batch request: IC50 per item, same order as input.
1. O=C(O)CNC(=O)C1=C(O)CCN(Cc2ccc(Oc3ccccc3F)cc2)C1=O
2. O=C(O)CNC(=O)C1=C(O)CCN(Cc2ccc(Oc3ccc(C(F)(F)F)cc3)cn2)C1=O
3. O=C(O)CNC(=O)C1=C(O)CCN(Cc2ccc(Oc3ccccc3)nc2)C1=O

Resp:
77
60
94
